// data source = patent US20240368177A1

I'd appreciate it if you could supply IC50 values for the items below.
test system: HCT116-MTAP-KO; experiment: Cell killing in HCT116 isogenic pair (Cell Titer-Glo viability), MTAP knock-out cells; type: cell-based, human; conditions: Homo sapiens, HCT-116, 144 h, 6 days incubation, 0-10 μM, * = more than 50% viability inhibition at tested concentration without a full curve

Which IC50 is listed for C[C@H]1OCc2c1c(N)nc1cc(C(=O)N(Cc3ccc(Br)cn3)Cc3ncccc3F)[nH]c21 ?
8.6 nM

Now consider C[C@H]1OCc2c1c(N)nc1cc(C(=O)N(C)[C@@H]3COCc4cc(Br)ccc43)[nH]c21 and answer again.
8.2 nM

Also, CN(C(=O)c1cc2nc(N)c3c(c2[nH]1)COC3)[C@@H]1COCc2cc(-c3cccnc3)ccc21 please.
18 nM

How about COC[C@@H](C)N(Cc1ncc(C2CC2)cc1F)C(=O)c1cc2nc(N)c3c(c2[nH]1)COC3 ?
5 nM

Also CC(C)N(Cc1ccc(C2CC2)cn1)C(=O)c1cc2nc(N)c3c(c2[nH]1)CO[C@@H]3C ?
11 nM

Please do the same for CC[C@@H](C)N(Cc1ccc(C2CC2)c(C)n1)C(=O)c1cc2nc(N)c3c(c2[nH]1)COC3 as well.
31 nM

Likewise for CCN(C(=O)c1cc2nc(N)c3c(c2[nH]1)COC3)[C@@H]1CO[C@H](C)c2cc(C(F)(F)F)ccc21 ?
4.1 nM

Now try CN(C(=O)c1cc2nc(N)c3c(c2[nH]1)COC3)[C@@H]1COCc2cc(C(F)(F)F)cnc21 .
145 nM

Now try CCN(C(=O)c1cc2nc(N)c3c(c2[nH]1)CO[C@@H]3C)[C@H](C)c1ccc(Br)cc1F .
22 nM

Follow-up item: CN(C(=O)c1cc2nc(N)c3c(c2[nH]1)COC3)[C@@H]1COC2(CC2)c2cc(C(F)(F)F)cc(F)c21
8.4 nM

What would you report for N#Cc1cc(F)c(CN(Cc2c(F)cccc2F)C(=O)c2cc3nc(N)c4c(c3[nH]2)COC4)c(F)c1 ?
< 1.5 nM

Ok, now CCN(C(=O)c1cc2nc(N)c3c(c2[nH]1)CO[C@@H]3C)[C@H](C)c1ccc(C(F)(F)F)cc1F
11 nM

What about C[C@H](c1ccc(C2CC2)cc1F)N(C)C(=O)c1cc2nc(N)c3c(c2[nH]1)COC3 ?
67 nM

Same question, C[C@H](c1ncccn1)N(Cc1ccc(C2CC2)cn1)C(=O)c1cc2nc(N)c3c(c2[nH]1)COC3 this time
8.4 nM

Quick one: CC(C)C(=O)N1Cc2cc(C(F)(F)F)ccc2[C@@H](N(C)C(=O)c2cc3nc(N)c4c(c3[nH]2)COC4)C1
272 nM
